# ASSAY_REMARKS: Selectivity index, ratio of CC50 for Cytotoxicity against african green monkey Vero cells to IC50 for Antiviral activity against HSV1 infected in African green monkey Vero cells
# Format: toxicity, cell-based
# APPLIED_CONDITIONS: read-out: Selectivity Index
Parameter selectivity ratio: see the listing below.
Number only, no unit.

Known results for compounds:
[[record]]
compound = "CCCC1C2=C(Oc3cc(O)c(C(=O)CC(C)C)c(O)c31)C(C)(C)C(=O)C(C)(C)C2=O (centres undefined)"
recorded_result = 18

[[record]]
compound = "CC(C)CC(=O)c1c(O)c(C=O)c2c(c1O)C(CC(C)C)C1=C(O2)C(C)(C)C(=O)C(C)(C)C1=O (centres undefined)"
recorded_result = 3.6

[[record]]
compound = "CC(C)CC(=O)c1c(O)cc(O)c2c1OC1=C(C(=O)C(C)(C)C(=O)C1(C)C)C2c1ccccc1 (racemic)"
recorded_result = 5.11


// switching to the query compound
[ask] Which selectivity ratio value belongs to CC(C)CC1C2=C(Oc3cc(O)c(C(=O)Cc4ccc(F)cc4)c(O)c31)C(C)(C)C(=O)C(C)(C)C2=O (centres undefined) ?
[reply] 17.1

====

Listing of recorded selectivity ratio by entry.
# ASSAY_REMARKS: Selectivity index, ratio of CC50 for Cytotoxicity against african green monkey Vero cells to IC50 for Antiviral activity against HSV1 infected in African green monkey Vero cells
# Type: toxicity, cell-based
# APPLIED_CONDITIONS: read-out: Selectivity Index
# output: bare number, no unit

Would you please look over these solved cases?
[[record]]
compound = "CC(C)C(=O)c1c(O)cc2c(c1O)C(C(C)C)C1=C(O2)C(C)(C)C(=O)C(C)(C)C1=O (racemic)"
recorded_result = 26.8

[[record]]
compound = "CC(C)CC(=O)c1c(O)cc2c(c1O)C(Cc1ccccc1)C1=C(O2)C(C)(C)C(=O)C(C)(C)C1=O (configuration not stated)"
recorded_result = 21.7

[[record]]
compound = "CC(C)CC(=O)c1c(O)cc2c(c1O)C(C1CCCCC1)C1=C(O2)C(C)(C)C(=O)C(C)(C)C1=O (configuration not stated)"
recorded_result = 12.5


[ask] Fill blank: measured selectivity ratio of the compound CC(C)CC1C2=C(Oc3cc(O)cc(O)c31)C(C)(C)C(=O)C(C)(C)C2=O (configuration not stated) is ____.
[reply] 1.86

[ask] # get_value(readout='selectivity ratio', item= "CC(C)CC(=O)c1c(O)cc2c(c1O)[C@@H](CC(C)C)C1=C(O2)C(C)(C)C(=O)C(C)(C)C1=O" )
[reply] 18.3

[ask] Entry under review: CC(C)CC(=O)c1c(O)cc2c(c1O)C(CC(C)C)C1=C(CCCC1=O)O2 (configuration not stated) . Reported selectivity ratio?
[reply] 5.33

[ask] For the compound CC(C)C1C2=C(Oc3cc(O)cc(O)c31)C(C)(C)C(=O)C(C)(C)C2=O (configuration not stated) , what selectivity ratio is on record?
[reply] 2.22

[ask] Item CC(C)CC1C2=C(Oc3cc(O)c(C(=O)CCCCCl)c(O)c31)C(C)(C)C(=O)C(C)(C)C2=O (configuration not stated) has what recorded selectivity ratio?
[reply] 16

[ask] I have this compound here, CC(C)CC1C2=C(Oc3cc(O)c(C(=O)C4CCCC4)c(O)c31)C(C)(C)C(=O)C(C)(C)C2=O (configuration not stated) , and I need its recorded selectivity ratio.
[reply] 15.5

[ask] Endpoint output: selectivity ratio of CC(C)CC1C2=C(Oc3cc(O)c(C(=O)C4CCC4)c(O)c31)C(C)(C)C(=O)C(C)(C)C2=O (configuration not stated) . Value?
[reply] 26

[ask] Reported selectivity ratio, compound CC(=O)c1c(O)cc2c(c1O)C(CC(C)C)C1=C(O2)C(C)(C)C(=O)C(C)(C)C1=O (configuration not stated) : ____
[reply] 13.4

====

# ASSAY_REMARKS: Selectivity index, ratio of CC50 for Cytotoxicity against african green monkey Vero cells to IC50 for Antiviral activity against HSV1 infected in African green monkey Vero cells
# Type: toxicity, cell-based
# APPLIED_CONDITIONS: read-out: Selectivity Index
Quick reference for selectivity ratio among some compounds

Guide cases for selectivity ratio, answers given:
[[record]]
compound = "CC(C)CC(=O)c1c(O)cc(O)c2c1OC1=C(C(=O)C(C)(C)C(=O)C1(C)C)C2C(C)C (racemic)"
quantity_measured = "selectivity ratio"
recorded_result = "< 4"

[[record]]
compound = "Nc1nc2c(ncn2COCCO)c(=O)[nH]1 [ACYCLOVIR]"
quantity_measured = "selectivity ratio"
recorded_result = "> 80"

[[record]]
compound = "CC(C)CC(=O)c1c(O)cc2c(c1O)C(C)C1=C(O2)C(C)(C)C(=O)C(C)(C)C1=O (racemic)"
quantity_measured = "selectivity ratio"
recorded_result = "< 18.8"

[[record]]
compound = "CC(C)CC(=O)c1c(O)cc2c(c1O)[C@@H](CC(C)C)C1=C(O2)C(C)(C)[C@@H](O)C(C)(C)C1=O"
quantity_measured = "selectivity ratio"
recorded_result = "< 6.67"


[ask] Give the measured selectivity ratio of CC(=O)c1c(O)cc(O)c2c1OC1=C(C(=O)C(C)(C)C(=O)C1(C)C)C2CC(C)C (stereo not given) .
[reply] > 10
